Biological target: rat lens aldose reductase (RLAR) (Rattus norvegicus)
Construct: The supernatant was collected and used as the RLAR; from tissue; host or cells: Sprague–Dawley rat lens homogenate, 10,000 x g supernatant
Assay: Determination of RLAR inhibition in vitro (NADPH decrease at 340 nm, DL-glyceraldehyde substrate);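 also: crude enzyme from Sprague–Dawley rat lens homogenate supernatant, absorbance read over 3 min in pH 6.2 potassium phosphate buffer with 1.6 mM NADPH and 25 mM substrate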
Format: biochemical
Conditions: Experiments
readout.kind: IC50

| molecule | assayed.target | readout.kind | result |
| --- | --- | --- | --- |
| O=C(O)[C@H]1O[C@@H](Oc2cc(O)c3c(=O)cc(-c4ccc(O)cc4)oc3c2)[C@H](O)[C@@H](O)[C@@H]1O [Apigenin-7-O-glucuronide (AGN), apigenin-7-O-glucuronide] | rat lens aldose reductase (RLAR) (Rattus norvegicus) | IC50 | > 30 µM |
| Oc1cc(O)c2c(c1)OC(c1ccc(O)c(O)c1)C(O)C2 (stereo not drawn) [Catechin (CT), catechin] | rat lens aldose reductase (RLAR) (Rattus norvegicus) | IC50 | > 30 µM |

Attention now turns to another entry.
Consider the molecule shown here: O=c1cc(-c2ccc(O)cc2)oc2c([C@@H]3O[C@H](CO)[C@@H](O)[C@H](O)[C@H]3O)c(O)cc(O)c12 [Vitexin (VT), vitexin] What is its recorded IC50?
> 30 µM
